# Measurement Description: Stability of the compound assessed as rate of 3-mercaptopicolinic acid formation at 10 mg at pH 8 by DTNB method
# Format: physicochemical
Readout Kind: log10 Activity (log10 of the value in h⁻¹)
A value of 2 here means Activity of 100 in h⁻¹, since values are log10.

Take a look at these entries with their results.
Value of log10 Activity reported for the compound `O=C(Sc1cccnc1C(=O)O)c1ccc([N+](=O)[O-])cc1` is -0.29

Value of log10 Activity reported for the compound `O=C(Sc1cccnc1C(=O)O)c1ccccc1Cl` is -1.59

Value of log10 Activity reported for the compound `O=C(Sc1cccnc1C(=O)O)c1cccc(Cl)c1` is -0.83

Could you tell me log10 Activity for each of these compounds? They are listed below.
1. O=C(Sc1cccnc1C(=O)O)c1ccc(C(F)(F)F)cc1
2. CC(C)(C)C(=O)Sc1cccnc1C(=O)O
3. O=C(Sc1cccnc1C(=O)O)c1ccccc1

1. -0.64
2. -1.94
3. -1.48

* * *

Assignment: determine reported half-life for the given compounds.
# Measurement Description: Half life of the compound at pH 6
# Type: physicochemical
Numbers only, in h.

Value of half-life reported for the compound `O=C(Sc1cccnc1C(=O)O)c1ccccc1` is 21.1

Value of half-life reported for the compound `O=C(Sc1cccnc1C(=O)O)c1cccc(C(F)(F)F)c1` is 3.9

Value of half-life reported for the compound `O=C(Sc1cccnc1C(=O)O)c1ccc([N+](=O)[O-])cc1` is 1.4

Value of half-life reported for the compound `Cc1ccc(C(=O)Sc2cccnc2C(=O)O)cc1` is 25.6

Value of half-life reported for the compound `CC(C)(C)C(=O)Sc1cccnc1C(=O)O` is 61.1

Could you tell me half-life for each of these compounds? They are listed below.
1. O=C(Sc1cccnc1C(=O)O)c1cccc(Cl)c1
2. O=C(Sc1cccnc1C(=O)O)c1ccc(C(F)(F)F)cc1
3. COc1cccc(C(=O)Sc2cccnc2C(=O)O)c1
4. O=C(Sc1cccnc1C(=O)O)c1ccc(F)cc1
5. O=C(Sc1cccnc1C(=O)O)c1ccccc1Cl
6. COc1ccc(C(=O)Sc2cccnc2C(=O)O)cc1
7. O=C(Sc1cccnc1C(=O)O)c1ccc(Cl)cc1

1: 4.7; 2: 3; 3: 11.9; 4: 12.1; 5: 27.2; 6: 43.9; 7: 7.9

* * *

# Measurement Description: Half life of the compound at pH 8
# Type: physicochemical
Threshold check on half-life: at or above 2 days gives Condition met, strictly below gives Condition not met.

half-life >= 2 days for `O=C(Sc1cccnc1C(=O)O)c1ccc(F)cc1` ?
Condition met

half-life >= 2 days for `CC(C)(C)C(=O)Sc1cccnc1C(=O)O` ?
Condition met

half-life >= 2 days for `O=C(Sc1cccnc1C(=O)O)c1ccc(Cl)cc1` ?
Condition not met

half-life >= 2 days for `O=C(Sc1cccnc1C(=O)O)c1ccccc1Cl` ?
Condition met

half-life >= 2 days for `COc1cccc(C(=O)Sc2cccnc2C(=O)O)c1` ?
Condition met

half-life >= 2 days for `O=C(Sc1cccnc1C(=O)O)c1ccccc1` ?
Condition met

half-life >= 2 days for `Cc1ccc(C(=O)Sc2cccnc2C(=O)O)cc1` ?
Condition met

half-life >= 2 days for `O=C(Sc1cccnc1C(=O)O)c1ccc([N+](=O)[O-])cc1` ?
Condition not met

Note: attention shifts to another entry.
half-life >= 2 days for `O=C(Sc1cccnc1C(=O)O)c1cccc(C(F)(F)F)c1` ?
Condition not met
